Quick reference for IC50 among some molecules
system_name: BRD4 BD1 (Homo sapiens, UniProt O60885)
assay_overview: AlphaScreen binding assay, BRD4 Bromodomain 1
property_measured: IC50

| molecule | system_name | result |
| --- | --- | --- |
| COC(=O)N1C[C@H](C)N(C(C)=O)c2ccc(-c3ccc(S(C)(=O)=O)cc3)cc21 | BRD4 BD1 (Homo sapiens, UniProt O60885) | 1000 to 10000 nM |
| CC(=O)N1c2ccc(-c3cnn(CC(=O)N4CCC4)c3)cc2N(C(=O)C2CC2)C[C@@H]1C | BRD4 BD1 (Homo sapiens, UniProt O60885) | 1000 to 10000 nM |
| CCCOC(=O)N1C[C@H](C)N(C(C)=O)c2ccc(-c3ccc(S(C)(=O)=O)cc3)cc21 | BRD4 BD1 (Homo sapiens, UniProt O60885) | 100 to 1000 nM |
| CC(=O)N1c2ccc(-c3ccc(N4CCOCC4)cc3)cc2N(C(=O)C2CC2)C[C@@H]1C | BRD4 BD1 (Homo sapiens, UniProt O60885) | 1000 to 10000 nM |
| CC(=O)N1c2ccc(-c3cnn(C4CC4)c3)cc2N(C(=O)Oc2ccc(C)cc2C)C[C@@H]1C | BRD4 BD1 (Homo sapiens, UniProt O60885) | 1000 to 10000 nM |
| CC(=O)N1c2ccc(-c3ccc(-c4ncc[nH]4)cc3)cc2N(C(=O)c2ccco2)CC1C (stereo not shown) | BRD4 BD1 (Homo sapiens, UniProt O60885) | 100 to 1000 nM |
| CCOC(=O)N1C[C@H](C)N(C(C)=O)c2ccc(-c3cccc(NS(C)(=O)=O)c3)cc21 | BRD4 BD1 (Homo sapiens, UniProt O60885) | 1000 to 10000 nM |
